meta.source: patent US20240034815A1

Field: Kd. Provide a value for each of the binders that follow.
# SUBJECT OF TEST: T1, His-tagged human GPC3 (human, UniProt P51654 25-559, limits assumed)
# T1 construct: Captured on HIS1K sensors in the Octet assay; also called human GPC3 antigen; Glypican 3; not shown: His tag
# ASSAY OVERVIEW: binding assay not named for this figure; human GPC3 per legend paragraph 61
Write the quantity with the unit trailing the number.

# BINDER, MEASURE, DATA VALUE
measured = [
    ("XENP 23067 H1_L1.4 (antibody, human IgG1, kappa, V domains shown, VH WT, VL mutation (Kabat) N28H; also called [GPC3]H1_L1.4; VL N28H) VH: QVQLVQSGAEVKKPGASVKVSCKASGYTFTDYEMHWVRQAPGQGLEWMGALDPKTGDTAYSQKFQGRVTMTADKSISTAYMELSRLRSDDTAVYYCTRFYSYTYWGQGTLVTVSS VL: DVVMTQSPLSLPVTLGQPASISCRSSQSLVHSHGNTYLHWYQQRPGQSPRLLIYKVSNRFSGVPDRFSGSGSGTDFTLKISRVEAEDVGVYFCSQNTHVPPTFGSGTKLEIKR", "Kd", "11.7 nM"),
]

Please turn your attention to the following entry.
Given item GPC3-A variable light variant L1.6 (G29T) with H1 (antibody, V domains shown, pairing with H1 follows from the library being made on humanized GPC3-A and from pair l) of claim 53; also called [GPC3]H1_L1.6) VH: QVQLVQSGAEVKKPGASVKVSCKASGYTFTDYEMHWVRQAPGQGLEWMGALDPKTGDTAYSQKFQGRVTMTADKSISTAYMELSRLRSDDTAVYYCTRFYSYTYWGQGTLVTVSS VL: DVVMTQSPLSLPVTLGQPASISCRSSQSLVHSNTNTYLHWYQQRPGQSPRLLIYKVSNRFSGVPDRFSGSGSGTDFTLKISRVEAEDVGVYFCSQNTHVPPTFGSGTKLEIKR , the value recorded as its Kd is 2.85 nM
